- System: Escherichia coli
- experimental-protocol: Antibacterial activity against Escherichia coli DH5alpha carrying ampC gene of Acinetobacter genomosp. 3 isolate 65 by Etest method
- Format: functional
With a cut-off of 4 µg/mL, any MIC strictly below it is called fulfilled; any MIC meeting it or above is called not fulfilled.

C[C@@H](O)[C@H]1C(=O)N2C(C(=O)O)=C(S[C@@H]3CN[C@H](C(=O)N(C)C)C3)[C@H](C)[C@H]12: fulfilled
CC(=O)OCC1=C(C(=O)O)N2C(=O)[C@@H](NC(=O)Cc3cccs3)[C@H]2SC1: not fulfilled
CO/N=C(\C(=O)N[C@@H]1C(=O)N2C(C(=O)O)=C(COC(C)=O)CS[C@H]12)c1csc(N)n1: not fulfilled
CC(C)(O/N=C(\C(=O)N[C@@H]1C(=O)N2C(C(=O)[O-])=C(C[n+]3ccccc3)CS[C@H]12)c1csc(N)n1)C(=O)O: fulfilled
CC1(C)S[C@@H]2[C@H](NC(=O)[C@H](N)c3ccccc3)C(=O)N2[C@H]1C(=O)O: not fulfilled
C[C@@H](O)[C@H]1C(=O)N2C(C(=O)O)=C(SCCNC=N)C[C@H]12 [IMIPENEM ANHYDROUS]: fulfilled

Incoming: Dear colleague, could you confirm whether MIC of "CO/N=C(\C(=O)N[C@@H]1C(=O)N2C(C(=O)[O-])=C(C[N+]3(C)CCCC3)CS[C@H]12)c1csc(N)n1" falls below 4 µg/mL? Thanks.
Outgoing: fulfilled

Incoming: Next compound up: "CO[C@@]1(NC(=O)Cc2cccs2)C(=O)N2C(C(=O)O)=C(COC(N)=O)CS[C@@H]21"
Outgoing: fulfilled
